# experimental_target: Voltage-gated potassium channel subunit beta-2 (Rattus norvegicus)
# assay_procedure: enhancers of rat Kvbeta2 NADPH turnover – biochemical, NADPH fluorescence, primary screen (AID 623);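 note: fluorescence intensity change per second fitted from 20 to 320 s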
# assay_conditions: Recombinant KvBeta, NADPH fluorescence decrease slope, 10 min; at 10 µM; hits give low values
Entries and their measured NADPH fluorescence slope follow.
// print number alone

Examples with their reported NADPH fluorescence slope follow.
• C=CCOc1ccc(C2C(C(=O)c3ccco3)=C(O)C(=O)N2Cc2cccnc2)cc1 (stereo not given) = -0.000128
• COc1cc(NC(=O)Cc2nn(C)c(=O)c3ccccc23)cc(OC)c1 = -4.8e-05
• C=CCN(CC=C)C(=O)CN1C(=O)c2ccccc2C1=O = -1.3e-05
• Cc1ccc(SCCNS(=O)(=O)c2ccc(F)cc2)cc1 = -3.1e-05
• Cc1c(C(=O)O)oc2ccc(S(=O)(=O)NCc3ccccc3)cc12 = 4.7e-05

**Q:** Find the recorded NADPH fluorescence slope belonging to `Cc1ccc(-n2nnnc2SCC(=O)N2CCc3ccccc3C2)cc1` and report it.
**A:** 8.4e-07

**Q:** May I ask what NADPH fluorescence slope has been recorded for CCC(NS(=O)(=O)c1ccc(C)cc1)C(=O)N1CCC2(O)CCCCC2C1 (stereo not given) ?
**A:** 0.000113

**Q:** # lookup: NADPH fluorescence slope of `COc1ccc(CCNS(=O)(=O)c2ccc3c(c2)CCN3C(=O)CCC(=O)O)cc1OC`
**A:** 7.1e-06

**Q:** # input compound: `COC(=O)c1cc(OC)c(OC)cc1NC(=O)CC1CCCCC1` ; wanted: its NADPH fluorescence slope
**A:** -2.3e-05

**Q:** Please look up its NADPH fluorescence slope: `Cn1nnnc1SCC(=O)NCc1ccco1`
**A:** 0.000107

**Q:** // query NADPH fluorescence slope value for entry CCOC(=O)C(OC(=O)c1sc(=S)n(C)c1C)C(C)=O (stereo not given)
**A:** -3.9e-05

**Q:** Need NADPH fluorescence slope of `COC(=O)c1cc(Br)ccc1-c1ccc(/C=N/n2nnnc2N)o1` , thanks.
**A:** -2.3e-05

**Q:** Please look up its NADPH fluorescence slope: Cc1ccc(S(=O)(=O)NCC2CCC(C(=O)NCCCN3CCOCC3)CC2)cc1 (stereo not given)
**A:** -0.000104

**Q:** Which value of NADPH fluorescence slope has been reported for COc1cc2nc(C3CCC3)n(NC(=O)C3CCCC(OC)C3)c(=O)c2cc1OC (stereo not given) in the records?
**A:** -1.2e-05

**Q:** Sample CCCCC(c1nnnn1CS(=O)(=O)c1ccc(C)cc1)N1CCN(c2ccccc2)CC1 (stereo not given) — what was its NADPH fluorescence slope?
**A:** -2.8e-05
